Reference for the values: patent US11247972B2

Kindly state inhibition at 3 µM for each of the entries shown.
target: PfCDPK1 (Plasmodium falciparum (isolate 3D7), UniProt P62344); test: biochemical; conditions: read-out: PfCDPK1 (% inhibition @ 3 uM)
Response body: numeric value in %, unit text excluded.

// fetch inhibition at 3 µM given entry CC(C)(C)n1nc(-c2ccc(-c3ccccc3)cc2)c2c(N)ncnc21 90

# return recorded inhibition at 3 µM for input CC(C)c1nc(-c2ccc3ccccc3c2)c2c(N)nccn12 92

Give me measured inhibition at 3 µM, please, for this compound: COc1ccc2cc(-c3nn(CC4CCNCC4)c4ncnc(N)c34)ccc2c1 92
